System: melanoma tumor cells MEXF 276/7
Experiment: cells
Details: Homo sapiens, read-out: relative EC50 soft agar clonogenic, 276/7
Outcome measure: EC50 (nM)
Write it as a number; the unit nM goes unstated.

Enquiry: Look at this compound and give its reported EC50. CN1CCN(c2ccc3nc(-c4c(N)c5c(F)cccc5[nH]c4=O)[nH]c3c2)CC1
Return: 1140
